Values from the supplement of paper PMC11451515

test system: SEM cells; assay: cell viability relative to DMSO control; higher = less cytotoxic; conditions: RPMI 5 mM glucose + 10% FBS; 48 h; 0.00702 µM
A collection of molecules and their measured cell viability
QUANTITY NAME: cell viability (%)

smiles_str=Cc1cn2cc(C(=O)N(C)CCO)cc(N[C@@H]3CCOc4cccc(C)c43)c2n1 units_of_measure=% number=75
smiles_str=NC(=O)c1cccc(-c2cc(Nc3ccc(OC(F)(F)F)cc3)ncn2)c1 units_of_measure=% number=106
smiles_str=OC[C@H]1O[C@H](C[C@@H]1O)N2/C=C(C(=O)NC2=O)/C(F)(F)F units_of_measure=% number=116
smiles_str=C/C1=C2/[N]3[Co+]456([OH])<-[N]7=C1[C@@H](CCC(N)=O)C(C)(C)/C7=C/C1=[N]->4C(=C(/C)C4=[N]->5[C@@](C)([C@H]3[C@H](CC(N)=O)[C@@]2(C)CCC(=O)NC[C@@H](C)OP(=O)([O-])O[C@H]2[C@@H](O)[C@@H](n3c[n]->6c5cc(C)c(C)cc53)O[C@@H]2CO)[C@@](C)(CC(N)=O)[C@@H]4CCC(N)=O)/[C@@](C)(CC(N)=O)[C@@H]1CCC(N)=O units_of_measure=% number=104
smiles_str=CO[C@@H](C(=O)N1Cc2[nH]nc(NC(=O)c3ccc(N4CCN(C)CC4)cc3)c2C1)c1ccccc1 units_of_measure=% number=103
smiles_str=Oc1cc(-c2nc(-c3ccccc3)[nH]c2-c2ccncc2)ccc1Cl units_of_measure=% number=115

###

A collection of compounds and their measured cell viability
system: SEM cells; test: cell viability relative to DMSO control; higher = less cytotoxic; conditions: RPMI 5 mM glucose + 10% dialyzed FBS; 48 h; 0.00702 µM
QUANTITY NAME: cell viability (%)

compound=Cc1ccc([C@@H]2O[C@H](CO)[C@@H](O)[C@H](O)[C@H]2O)cc1Cc1ccc(-c2ccc(F)cc2)s1 quantity_name="cell viability" units_of_measure=% number=106
compound=Cc1cc(Nc2ncc3c(n2)N(C)C(=O)N(c2cc(NC(=O)c4cccc(C(F)(F)F)c4)ccc2C)C3)n(C)n1 quantity_name="cell viability" units_of_measure=% number=114
compound=COCCn1c2c([n+](Cc3cnccn3)c1C)C(=O)c1ccccc1C2=O quantity_name="cell viability" units_of_measure=% number=117
compound=Cc1ccc(C(=O)Nc2cccc(C(F)(F)F)c2)cc1Nc1nc(-c2cccnc2)nc2c1cnn2C quantity_name="cell viability" units_of_measure=% number=109
compound=CC[C@H]1OC(=O)[C@H](C)[C@@H](O[C@H]2C[C@@](C)(OC)[C@@H](O)[C@H](C)O2)[C@H](C)[C@@H](O[C@@H]2O[C@H](C)C[C@H](N(C)C)[C@H]2O)[C@](C)(OC)C[C@@H](C)C(=O)[C@H](C)[C@@H](O)[C@]1(C)O quantity_name="cell viability" units_of_measure=% number=111
compound=c1cc(-c2cnn3cc(-c4ccc(OCCN5CCCCC5)cc4)cnc23)ccn1 quantity_name="cell viability" units_of_measure=% number=99.8
compound="C[C@]12CCC3c4ccc(O)cc4CCC3C1CCC2=O (some centres not stated)" quantity_name="cell viability" units_of_measure=% number=98.4
compound="NC1=NC(=O)N2CC12 (configuration not stated)" quantity_name="cell viability" units_of_measure=% number=82.5
compound="CN(CCOc1ccc(CC2SC(=O)NC2=O)cc1)c1ccccn1 (configuration not stated)" quantity_name="cell viability" units_of_measure=% number=113
compound=COc1ccccc1[C@H](c1cccc2ccccc12)[C@@](C)(C#N)C(=O)N1CCC(c2cccc(C(F)(F)F)c2)CC1 quantity_name="cell viability" units_of_measure=% number=100
compound=CC(=O)OC[C@@H]1O[C@H]([C@H](OC(C)=O)[C@@H]1OC(C)=O)N2\C=C/C(=O)NC2=O quantity_name="cell viability" units_of_measure=% number=137
compound=COC1=CC=C(C=C1)/C2=C(O)/C(=O)C3=C(O)C=C(O)C(=C3O2)CC=C(C)C quantity_name="cell viability" units_of_measure=% number=115
compound=Cc1cc(Nc2cc(N3CCN(C)CC3)nc(/C=C/c3ccccc3)n2)n[nH]1 quantity_name="cell viability" units_of_measure=% number=97.1
compound=C[C@@H]1CC[C@@]2(CC[C@]3(C)\C(=C/C[C@@H]4[C@@]5(C)CC[C@H](O)C(C)(C)[C@@H]5CC[C@@]34C)[C@@H]2[C@H]1C)C(O)=O quantity_name="cell viability" units_of_measure=% number=114
compound=Nc1ccc(C(=O)c2cc3c(ccc4ccccc43)[nH]2)cc1 quantity_name="cell viability" units_of_measure=% number=117
compound=CCCN[C@H]1CCc2nc(N)sc2C1 quantity_name="cell viability" units_of_measure=% number=98.3
compound=CCCCc1ccc2[nH]c(NC(=O)OC)nc2c1 quantity_name="cell viability" units_of_measure=% number=102

###

tested on: SEM cells; assay: cell viability relative to DMSO control; higher = less cytotoxic; details: RPMI 5 mM glucose + 10% dialyzed FBS; 48 h; 46.1 µM
A collection of compounds and their measured cell viability
QUANTITY NAME: cell viability (%)

smiles_str=COC1=CC=C(C=C1)/C2=C(O)/C(=O)C3=C(O)C=C(O)C(=C3O2)CC=C(C)C measured_on="SEM cells" quantity_name="cell viability" number=108
smiles_str=O=C(O)c1ccc(O)c2ncc(N3CCOCC3)cc12 measured_on="SEM cells" quantity_name="cell viability" number=7.27
smiles_str=CCN(CC)CCNC(=O)c1c(C)[nH]c(/C=C2\C(=O)Nc3ccc(F)cc32)c1C measured_on="SEM cells" quantity_name="cell viability" number=3.99
smiles_str=N[S+](=O)([O-])c1ccc(Nc2nc(OCC3CCCCC3)c3[nH]cnc3n2)cc1 measured_on="SEM cells" quantity_name="cell viability" number=2.04
smiles_str=O=C(O)CCCCCC(=O)NN=C1CCCC1 measured_on="SEM cells" quantity_name="cell viability" number=110
smiles_str=COc1ccc(F)c(F)c1C(=O)c1cnc(NC2CCN([S+](C)(=O)[O-])CC2)nc1N measured_on="SEM cells" quantity_name="cell viability" number=1.73
smiles_str=CC/C=C\C[C@H]1C(=O)CC[C@@H]1CC(=O)OC measured_on="SEM cells" quantity_name="cell viability" number=120
smiles_str=CNC(=O)c1ccc2c(c1)NC(=O)/C2=C(\Nc1cccc(CN(C)C)c1)c1ccccc1 measured_on="SEM cells" quantity_name="cell viability" number=1.28
smiles_str=C[C@H](NC(=O)Cc1cc(F)cc(F)c1)C(=O)N[C@H](C(=O)OC(C)(C)C)c1ccccc1 measured_on="SEM cells" quantity_name="cell viability" number=70.3
smiles_str=CO[C@@H](C(=O)N1Cc2[nH]nc(NC(=O)c3ccc(N4CCN(C)CC4)cc3)c2C1)c1ccccc1 measured_on="SEM cells" quantity_name="cell viability" number=16.4
smiles_str=COc1cc(NCc2ccc3nc(N)nc(N)c3c2C)cc(OC)c1OC measured_on="SEM cells" quantity_name="cell viability" number=3.29
smiles_str=CCCCCNC(=N)N/N=C/c1c[nH]c2ccc(OC)cc12 measured_on="SEM cells" quantity_name="cell viability" number=36.6
smiles_str=CN1CCc2c(c3ccccc3n2Cc2ccc(C(=O)NO)cc2)C1 measured_on="SEM cells" quantity_name="cell viability" number=22.6
smiles_str=CC(=O)N(C)C1(c2ccccc2)CCN(CCC[C@]2(c3ccc(Cl)c(Cl)c3)CCCN(C(=O)c3ccccc3)C2)CC1 measured_on="SEM cells" quantity_name="cell viability" number=6.46
smiles_str=CN1C(=O)/C(=C(NC2=CC=C(I)C=C2F)\C3=C1\N=C/N(C[C@@H](O)CO)C3=O)F measured_on="SEM cells" quantity_name="cell viability" number=28
smiles_str=COc1c(Cl)cc2c([nH]c3cnccc32)c1NC(=O)c1cccnc1C measured_on="SEM cells" quantity_name="cell viability" number=90.1
smiles_str=CNC[C@H](O)[C@@H](O)[C@H](O)[C@H](O)CO measured_on="SEM cells" quantity_name="cell viability" number=119

###

system: P12-Ichikawa; test: cell viability relative to DMSO control; higher = less cytotoxic; details: HPLM + 10% dialyzed FBS; 48 h; 46.1 µM
Classify by cell viability. Ranges: lower segment (below 10%), middle segment (10% to below 70%), upper segment (70% or more)

molecule=N[S+](=O)([O-])c1ccc(Nc2nc(OCC3CCCCC3)c3[nH]cnc3n2)cc1 cat="upper segment"
molecule=COC1=CC=C(C=C1)/C2=C(O)/C(=O)C3=C(O)C=C(O)C(=C3O2)CC=C(C)C cat="upper segment"
molecule="CCC(CCCC)COC(=O)C(\\C#N)=C(\\c1ccccc1)c2ccccc2 (centres undefined)" cat="upper segment"
molecule=C[S+](=O)([O-])Oc1ccc2c(NC(N)=O)c(C(=O)c3ccc(Cl)cc3Cl)oc2c1 cat="middle segment"
molecule="NC1=NC(=O)N2CC12 (centres undefined)" cat="lower segment"
molecule=CNc1nc(-c2ccc3c(N)n[nH]c3c2)cc(N2C[C@@H](C(=O)NC3CCCCC3)CC[C@H]2C)n1 cat="middle segment"
molecule=CN1CCc2c(c3ccccc3n2Cc2ccc(C(=O)NO)cc2)C1 cat="middle segment"
molecule=CC(C)(N)c1ccc(-c2nc3ccccc3nc2-c2ccccc2)cc1 cat="lower segment"
